Test: solvent given as SMILES
Settings: in CC(C)CC(C)(C)C
OUTCOME MEASURE: solvation free energy, 298 K (kcal/mol)
Number only, in kcal/mol; omit the unit.

Record excerpt, results attached:
C1CCOC1 | -3.72
CCCCCCCC | -5.32
CSC | -2.9

**Query** Field request: solvation free energy, 298 K | item: `Oc1c(I)cc(I)cc1I`
**Result** -12.4

**Query** What about `CC(C)CN(CC(C)C)N=O` ?
**Result** -7.35

**Query** Please answer likewise for `CCCCCCCCC`
**Result** -5.95

**Query** Try this compound too: `Oc1ccccc1`
**Result** -5.23

###

Experiment: solvent given as SMILES
Settings: in C1COCCO1
Param threshold (-6 kcal/mol) applies to solvation free energy, 298 K; output y when value >= threshold, n when value < threshold.

O=C(O)Cc1ccccc1Nc1c(Cl)cccc1Cl | n
C[N+](=O)[O-] | y
c1ccc(-c2ccccc2)cc1 | n
O=C(O)c1ccc(Cl)c([N+](=O)[O-])c1 | n
C#C | y

**Query** Does `c1ccc2cc3ccccc3cc2c1` have a reported solvation free energy, 298 K of at least -6 kcal/mol?
**Result** n

###

Assay: solvent given as SMILES
Conditions: in CCN(CC)C(C)=O
In this section we review reported solvation free energy, 298 K values for a set of compounds.
State the answer as a number, implicitly in kcal/mol.

Record excerpt, results attached:
CCC(C)(C)OC | -4.04
C=COC(C)=O | -4.2
CCO | -5.06
CCOCC | -2.95
CCCCCCCC | -4.35

**Query** What value of solvation free energy, 298 K has been reported for the following compound? `CCCCCCC`
**Result** -3.74

**Query** // repeat for `C1CCOC1` and report
**Result** -3.97

**Query** Proceed to `CCCCCC`
**Result** -3.11

**Query** Field entry: `CC(C)=O`
**Result** -3.82

**Query** Similarly, `CCCCC` ?
**Result** -2.48

###

Assay: solvent given as SMILES
Details: in CCCCCCCCCCCCCCCC
Where solvation free energy, 298 K equals or exceeds -4 kcal/mol, the correct label is Condition met; where it does not, the label is Condition not met.

CCCCCOC(C)=O | Condition not met
CCCCCOCCCCC | Condition not met
CCCCCCCCC | Condition not met
CCCCCC=O | Condition not met
CCCOC=O | Condition met
CCCCCCCC | Condition not met
CC(C)CCC(C)C | Condition not met
CCO | Condition met
C=CC | Condition met
CCCCCCl | Condition not met

**Query** Decide: solvation free energy, 298 K of `C1CCOC1` >= -4 kcal/mol?
**Result** Condition met

**Query** Then this compound: `CCC(C)CC`
**Result** Condition met

###

Experiment: solvent given as SMILES
Settings: in O
Label t when solvation free energy, 298 K >= -3 kcal/mol; otherwise f.

O=C(CCCN1CCC(O)(c2ccc(Cl)cc2)CC1)c1ccc(F)cc1 | f

**Query** Is solvation free energy, 298 K for C=CC(C)CCCC(C)CCCC(C)CCCC(C)C (configuration not stated) at or above -3 kcal/mol?
**Result** t

**Query** What do you get for C=C1CCC23CC1C(C)(C)C2CCC3C (configuration not stated) ?
**Result** t

**Query** Could you do the same for `CCCCC(C)=O` , please?
**Result** f

**Query** Cool, now `Clc1cc2c(cc1Cl)Oc1c(Cl)c(Cl)c(Cl)c(Cl)c1O2`
**Result** f

**Query** And what about the compound `CC(C)Cc1ccccc1` ?
**Result** t

###

Test: solvent given as SMILES
Details: in C=CCCCCCCC=C
OUTCOME MEASURE: solvation free energy, 298 K (kcal/mol)
Lab book: enter the figure in kcal/mol, no units written.

O=C(O)c1cccc2ccccc12 | -9.51
Nc1ncnc2nc[nH]c12 | -10.2
O=C(O)Cc1ccccc1 | -7.39
CC(=O)N(C)C | -5.22

Please turn your attention to the following entry.
**Query** Please give the measured solvation free energy, 298 K for this molecule: `CC(N)=O`
**Result** -4.98

###

Assay: solvent given as SMILES
Settings: in O
OUTCOME MEASURE: solvation free energy, 298 K (kcal/mol)
Form entry: value (kcal/mol) — number only.

Cc1c(C)c(C)c(C)c(C)c1C | -1.95

**Query** Name the recorded solvation free energy, 298 K for `CCCCCCCCCCOC(=O)c1ccccc1C(=O)OCCCCC` .
**Result** -6.49

**Query** Likewise for `O=[N+]([O-])c1cccc(CO)c1` ?
**Result** -9.19

###

Assay: solvent given as SMILES
Conditions: in Clc1ccccc1
YES means recorded solvation free energy, 298 K is -4 kcal/mol or above; NO means it is below -4 kcal/mol.

See these solved cases before continuing.
c1ccc2ccccc2c1 | NO
FC(F)(F)F | YES
CCOC(C)=O | NO
CC(C)CCC(C)C | NO
CCCCCC | YES
Oc1ccc2ccccc2c1 | NO
CCCCC | YES
CCCCCCCC | NO
CCO | YES
CCCCCCC | NO

**Query** API: above_or_equal(metric=solvation free energy, 298 K, cutoff=-4 kcal/mol) for item `C[N+](=O)[O-]`
**Result** NO

###

Experiment: solvent given as SMILES
Details: in NC=O
Binned solvation free energy, 298 K; ranges: class 0: < -4 kcal/mol; class 1: ≥ -4 kcal/mol and < -3 kcal/mol; class 2: ≥ -3 kcal/mol

**Query** Where would `CC(C)=O` land among the classes by reported solvation free energy, 298 K?
**Result** class 1

###

Assay: solvent given as SMILES
Details: in OCCO
// assign 1.0 if solvation free energy, 298 K falls strictly below -2 kcal/mol, else 0.0 (ties count as 0.0)

Illustrative cases are given below, each with its answer.
CCc1ccccc1 | 1.0
C=CC | 0.0
CC=C(C)C | 0.0
C=C(C)CC(C)(C)C | 0.0
C[N+](=O)[O-] | 1.0
CCO | 1.0
CC(C)c1ccccc1 | 1.0
CCCCC | 0.0
CCCCC1CCCCC1 | 1.0

Continue with the next compound.
**Query** Please check: solvation free energy, 298 K for `CCCCCCC` , strictly under -2 kcal/mol or not?
**Result** 0.0

###

Measured solvation free energy, 298 K, listed per entry.
Assay: solvent given as SMILES
Details: in COC(C)CCO
Output spec: scalar in kcal/mol, unitless text.

Reference set (4 entries):
c1ccc2cc3ccccc3cc2c1 | -10.7
c1ccc(-c2ccccc2)cc1 | -8.68
NC(=O)c1ccccc1O | -12.7
COc1ccc(C(=O)O)cc1 | -12.3

**Query** What solvation free energy, 298 K value was documented for this molecule, `c1cc2ccc3cccc4ccc(c1)c2c34` ?
**Result** -12.3

###

Test: solvent given as SMILES
Details: in OCCOCCOCCOCCO
OUTCOME MEASURE: solvation free energy, 298 K (kcal/mol)
Field format: number, assumed kcal/mol, no unit text.

CCCCCC | -1.65

**Query** Query (compound): `CCc1ccccc1` ; field requested: solvation free energy, 298 K
**Result** -4.38

**Query** Next compound: `CCCCCCCC`
**Result** -2.71

**Query** Same for `CCCCCCC`
**Result** -2.13

**Query** Next: `CCCCCCCCC`
**Result** -3.13

###

Test: solvent given as SMILES
Details: in N#CCCCCC#N
OUTCOME MEASURE: solvation free energy, 298 K
Your answer should be a number followed by the unit of measure.

Worked examples, 5 molecules total:
CCCCC | -1.32 kcal/mol
CC=C(C)C | -1.98 kcal/mol
CCCCCCCC | -2.96 kcal/mol
C#CCCCCC | -3.83 kcal/mol
CCCCCCCCC | -3.46 kcal/mol

**Query** # query: solvation free energy, 298 K of entry `CCCCCCC`
**Result** -2.45 kcal/mol

**Query** Entry to check: `C1CCCCCCC1`
**Result** -4.01 kcal/mol

**Query** Then `CCCCCC` ?
**Result** -1.86 kcal/mol

###

Test: solvent given as SMILES
Conditions: in CC1COC(=O)O1
OUTCOME MEASURE: solvation free energy, 298 K (kcal/mol)
Field format: number, assumed kcal/mol, no unit text.

**Query** Need solvation free energy, 298 K of `CCCCCCCC` , thanks.
**Result** -3.01

###

Test: solvent given as SMILES
Details: in CCCCCCOC(C)=O
The reader will find reported solvation free energy, 298 K values listed item by item below.
Report only the number, with the unit kcal/mol understood.

CCCCCC | -3.61
CCCCCCCC | -4.92
CC(C)CCC(C)C | -4.48
CCCCCCC | -4.27
CC(C)C(C)C(C)C | -4.59

**Query** Dear colleague, I am looking for the recorded solvation free energy, 298 K of the following compound: `CCCCC`
**Result** -2.96

**Query** Lookup `CCCCCCCCC`
**Result** -5.56

All values here come from the CombiSolv-Exp solvation set (Vermeire and Green 2021).
